- Tested on: TK-10
- assayText: NCI tumour cell line growth inhibition, 48 h
Activity calls are given as the source filed them. Cut-off read from the data, not from the text of the source: active = GI50 up to about 1.1 µM and inactive = higher.
GI50: recorded values
readoutLabel: GI50

[
  {
    "molecule": "O=C(c1cccnc1)N1N=C(c2ccc(Cl)cc2)CC1(O)c1cc(F)c(Cl)cc1Cl (centres undefined)",
    "targetUnderTest": "TK-10",
    "assayResult": "41.1 µM (inactive)"
  },
  {
    "molecule": "CC1(C)C=C(/C=N/Nc2ccc(Br)cc2)C(C#N)=C(O)C1(C#N)C#N",
    "targetUnderTest": "TK-10",
    "assayResult": "83.6 µM (inactive)"
  },
  {
    "molecule": "O=S(O)CCCCCSSc1ccc(Cl)cc1",
    "targetUnderTest": "TK-10",
    "assayResult": "23.2 µM (inactive)"
  },
  {
    "molecule": "Nc1c(Cl)c([N+](=O)[O-])cc2c1OCCCCO2",
    "targetUnderTest": "TK-10",
    "assayResult": "> 100 µM (inactive)"
  },
  {
    "molecule": "Cc1ncc(COP(=O)(O)O)c(C)c1O",
    "targetUnderTest": "TK-10",
    "assayResult": "> 100 µM (inactive)"
  },
  {
    "molecule": "COc1ccc([C@@H]2CC(=O)NCCCNCCCCNCCCN2)cc1",
    "targetUnderTest": "TK-10",
    "assayResult": "> 100 µM (inactive)"
  },
  {
    "molecule": "CN(C)CCN(/C(=N/c1ccccc1)N1CCCC1)c1ccccc1",
    "targetUnderTest": "TK-10",
    "assayResult": "> 100 µM (inactive)"
  },
  {
    "molecule": "O=C1c2ccccc2C(=O)c2sc(Nc3cccc(Cl)c3)nc21",
    "targetUnderTest": "TK-10",
    "assayResult": "2.88 µM (inactive)"
  },
  {
    "molecule": "C[C@]12CCC3c4ccc(O)cc4CC[C@H]3C1CC(=O)N(N)C2=O (some centres undefined)",
    "targetUnderTest": "TK-10",
    "assayResult": "> 100 µM (inactive)"
  }
]

Provenance of the data: ChEMBL document CHEMBL1201862
